Cited source for all entries: paper PMC9330529

- Target Entity: SARS-CoV-2 S2 protein (SARS-CoV-2 (WT), UniProt P0DTC2 686-1213)
- Procedure Text: streptavidin bead fluorescence binding
- Particulars: protein: commercial; tags: His; label: 6-FAM
Reported Metric: pKd
Recall that pKd is obtained by taking minus log10 of the concentration measured in molar.

Return pKd (reported value) for this binder: S2A2 (ssDNA) DNA: CAAGGAGCGACCAGAGGCGGGTTCCTAGACTTGTACTCAGCCTTTACAGCTATGCCCTGGCATCCTTCAGCCC
7.35
